Endpoint summary: pIC50, system: UniProtKB O60674, multiple sources combined.
pIC50: −log10 of the molar value.

Worked examples follow.
compound	target_under_test	quantity_name	result
Cc1cnc(Nc2ccc(-n3cccn3)cc2)nc1-c1cnn(C(CC#N)CC2CCN(S(=O)(=O)c3ccn(C)n3)CC2)c1 (racemic)	UniProtKB O60674	pIC50	> 7.00
C[C@H](O)C(=O)N1CC[C@H](Oc2ccc(-c3ncnc(Nc4ccc(N5CCN(C6COC6)C[C@@H]5C)cc4)n3)cc2C#N)C(F)(F)C1	UniProtKB O60674	pIC50	6.67
COC(=O)c1cc(Oc2ccc3nc(Nc4ccc(F)cc4F)n(C)c3n2)ccn1	UniProtKB O60674	pIC50	< 5.00

Now take the following compound into account.
Kindly state the measured pIC50 obtained for N#CCC1(n2cc(-c3ncnc4[nH]ccc34)cn2)CN(C2CCN(C(=O)Nc3ccc(F)cc3C(F)(F)F)CC2)C1 with UniProtKB O60674. 7.30 to 8.00
